Reference for the values: patent US20250034275A1

# target_entity: T1, human Trop-2 (on the surface of human cell lines) (human, UniProt P09758 27-323)
# T1 sequence: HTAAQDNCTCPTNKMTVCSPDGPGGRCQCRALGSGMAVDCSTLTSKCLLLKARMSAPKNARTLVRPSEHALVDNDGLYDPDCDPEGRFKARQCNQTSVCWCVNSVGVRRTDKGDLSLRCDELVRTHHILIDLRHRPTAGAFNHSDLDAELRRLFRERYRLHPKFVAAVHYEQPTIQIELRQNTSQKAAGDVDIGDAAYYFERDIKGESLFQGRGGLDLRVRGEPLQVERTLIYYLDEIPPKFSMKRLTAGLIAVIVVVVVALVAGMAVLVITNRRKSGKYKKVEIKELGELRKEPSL
# assay_name: cell-based or functional assay
parameter_measured: ADCC reporter (Jurkat-CD16a v158-NFAT-luciferase), target cell H322, EC50 (nM)
Give bare numbers, in nM.

Below, each entry is followed by its recorded ADCC reporter (Jurkat-CD16a v158-NFAT-luciferase), target cell H322, EC50 result.
binder	data_value
ch-Ab35 (antibody, human IgG1, kappa, V domains shown, Mouse VH/VL on human IgG1 and human kappa constant regions; also called chimeric antibody of Ab35) VH: EVQLQQSGPDLVRPGASVKLSCKASGYTFTSSDINWVKQRPGQGLEWIGWIYPRDGSKKYNEKFKGKATLTVDTSSSTAYMEVHSLTSEDSAVYFCATRFATVVSNYGLDPWGQGTSVTVSS VL: AIVLTQSPAIMSASPGEKVTMTCSASSSVNYIYWYQRKPGSSPRLLIYDTSNLASGVPVRFSGSGSGTSYSLTISRMEAEDAATYYCQQWNSYPLTFGAGTKLELKR	0.02
hz-Ab21-2.1 (antibody, human IgG1, kappa, V domains shown, Humanized antibody) VH: EVQLVESGGGLVKPGGSLRLSCAASGFTLRNYGVHWVRQAPGKGLEWVGVIWSSGTTDYAAPVKGRFTISKDNSKNTLYLQMNSLKTEDTAVYYCTRDGDYDYYTMDYWGQGTLVTVSS VL: EIVLTQSPATLSLSPGERATLSCRASKSVSTSAYSYIHWYQQKPGQPPRLLIYLTSNLESGIPARFSGSGSGTDFTLTISSLEPEDFAVYYCQHSRELPYTFGQGTKVEIKR	0.21

Switching to the query record.
Just so you know, measured ADCC reporter (Jurkat-CD16a v158-NFAT-luciferase), target cell H322, EC50 for hz-Ab21-2.2 (antibody, human IgG1, kappa, V domains shown, Humanized antibody) VH: EVQLVESGGGLVKPGGSLRLSCAASGFTLRNYGVHWVRQAPGKGLEWVGVIWSSGTTDYNAAFISRFTISKDNSKNTLYLQMNSLKTEDTAVYYCTRDGDYDYYTMDYWGQGTLVTVSS VL: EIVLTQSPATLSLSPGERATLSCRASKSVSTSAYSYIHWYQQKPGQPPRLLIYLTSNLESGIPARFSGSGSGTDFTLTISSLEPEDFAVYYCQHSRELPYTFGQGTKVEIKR came out at 0.15
